- target.desc: 1-deoxy-D-xylulose-5-phosphate synthase (Haemophilus influenzae (strain 86-028NP), UniProt Q4QKG6)
- Sequence (Q4QKG6 whole entry): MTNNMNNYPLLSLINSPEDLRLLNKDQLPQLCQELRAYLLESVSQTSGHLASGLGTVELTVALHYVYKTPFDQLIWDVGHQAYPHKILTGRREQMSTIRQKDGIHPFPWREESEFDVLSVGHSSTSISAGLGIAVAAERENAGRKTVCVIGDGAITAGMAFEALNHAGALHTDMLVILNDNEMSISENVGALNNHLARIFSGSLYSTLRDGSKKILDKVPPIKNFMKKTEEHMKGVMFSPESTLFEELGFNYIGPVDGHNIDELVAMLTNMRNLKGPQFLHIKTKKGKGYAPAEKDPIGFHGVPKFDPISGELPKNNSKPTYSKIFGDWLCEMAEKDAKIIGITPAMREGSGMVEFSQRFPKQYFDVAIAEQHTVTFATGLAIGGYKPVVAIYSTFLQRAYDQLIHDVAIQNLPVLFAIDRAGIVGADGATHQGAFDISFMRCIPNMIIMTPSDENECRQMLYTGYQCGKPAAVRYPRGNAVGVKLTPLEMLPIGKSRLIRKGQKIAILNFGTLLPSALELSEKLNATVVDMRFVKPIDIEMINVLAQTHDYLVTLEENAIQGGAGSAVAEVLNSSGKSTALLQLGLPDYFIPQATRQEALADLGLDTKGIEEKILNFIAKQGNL
- method.notes: Inhibition of Haemophilus influenzae DXS
property.label: Ki
Reply with a number, then the unit it belongs to.

Enquiry: Returns the measured Ki for the input compound. Input: `CC1(C)C(=O)ON(Cc2ccccc2Cl)C1=O`
Return: 23.3 µM

---

compounds and their reported log10 IC50
- method.notes: Inhibition of Escherichia coli IspE
Give log10 of IC50, with IC50 taken in µM.

The examples below pair each entry with its known result.
# compound, log10 IC50
measured = [
    ("COCCS(=O)(=O)NCC#Cc1cn(C2CCCS2)c(=O)nc1N (stereo unspecified)", 1.48),
    ("Nc1nc(=O)n(C2CCCS2)cc1C#CCNS(=O)(=O)C(=O)[C@@H](O)[C@@H](O)[C@H](O)[C@H](O)CO (stereo partly specified)", 2.61),
    ("Nc1nc(=O)n(C2CCCS2)cc1C#CCNS(=O)(=O)C1CC1 (stereo unspecified)", 0.23),
    ("Cc1[nH]c2ccccc2c1C(Nc1ccccn1)c1ccccc1O (stereo unspecified)", 1.28),
    ("COC(c1cn(CC#Cc2cn(C3CCCS3)c(=O)nc2N)c(C2CCCCC2)n1)C(F)(F)F (stereo unspecified)", 1.00),
]

Enquiry: Returns the measured log10 IC50 for the input compound. Input: `O=c1c2ccccc2nc(-c2cccnc2)n1-c1ccc(Br)cn1`
Return: 0.48

Enquiry: Returns the measured log10 IC50 for the input compound. Input: `COc1cc(C#Cc2ccc(C#CCOc3cccnc3)cn2)nc(N)n1`
Return: 0.94

Enquiry: Returns the measured log10 IC50 for the input compound. Input: Nc1nc(=O)n(C2CCCO2)cc1C#CCNS(=O)(=O)C1CC1 (stereo unspecified)
Return: 0.30

Enquiry: Returns the measured log10 IC50 for the input compound. Input: Nc1nc(=O)n(C2CCCS2)cc1S(=O)(=O)c1ccccc1 (stereo unspecified)
Return: 2.34

Enquiry: Returns the measured log10 IC50 for the input compound. Input: `Oc1csc(Nc2nccs2)n1`
Return: 2.20

Enquiry: Returns the measured log10 IC50 for the input compound. Input: `COc1ccccc1-c1cnc(N)c(C#CCNS(=O)(=O)C2CC2)c1`
Return: 2.38

---

- target.desc: 1-deoxy-D-xylulose-5-phosphate synthase (Escherichia coli O127:H6 (strain E2348/69 / EPEC))
- Sequence (B7UJP3 whole entry): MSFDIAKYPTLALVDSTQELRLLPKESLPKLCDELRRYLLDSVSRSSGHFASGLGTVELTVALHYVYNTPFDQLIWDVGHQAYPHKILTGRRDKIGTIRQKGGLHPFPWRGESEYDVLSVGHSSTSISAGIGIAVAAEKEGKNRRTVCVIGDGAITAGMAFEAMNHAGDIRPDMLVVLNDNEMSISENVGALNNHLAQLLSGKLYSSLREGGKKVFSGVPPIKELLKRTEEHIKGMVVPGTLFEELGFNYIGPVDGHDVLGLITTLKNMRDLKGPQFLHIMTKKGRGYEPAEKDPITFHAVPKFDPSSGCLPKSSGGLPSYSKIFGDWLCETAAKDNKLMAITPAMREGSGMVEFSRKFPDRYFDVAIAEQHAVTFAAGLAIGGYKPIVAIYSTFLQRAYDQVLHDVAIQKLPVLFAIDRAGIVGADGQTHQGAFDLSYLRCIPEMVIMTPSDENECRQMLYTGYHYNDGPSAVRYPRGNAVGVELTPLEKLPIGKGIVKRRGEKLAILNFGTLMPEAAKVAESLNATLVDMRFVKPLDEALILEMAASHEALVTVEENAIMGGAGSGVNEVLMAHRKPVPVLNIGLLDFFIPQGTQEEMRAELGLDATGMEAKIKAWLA
- method.notes: Inhibition of Escherichia coli DXS
property.label: Ki (µM)
Value expressed in µM; do not type the unit.

The examples below pair each entry with its known result.
# structure.notation, Ki / µM
records = [
    ("CCCCOP(=O)(O)C(C)=O", 5.6),
    ("CCOP(=O)(O)C(C)=O", 6.7),
]

Moving on to the next compound.
Enquiry: Returns the measured Ki for the input compound. Input: `CC(=O)P(=O)(O)OCc1ccccc1`
Return: 10.4

---

- target.desc: 1-deoxy-D-xylulose-5-phosphate synthase (Mycobacterium tuberculosis)
- Sequence (P9WNS3 whole entry): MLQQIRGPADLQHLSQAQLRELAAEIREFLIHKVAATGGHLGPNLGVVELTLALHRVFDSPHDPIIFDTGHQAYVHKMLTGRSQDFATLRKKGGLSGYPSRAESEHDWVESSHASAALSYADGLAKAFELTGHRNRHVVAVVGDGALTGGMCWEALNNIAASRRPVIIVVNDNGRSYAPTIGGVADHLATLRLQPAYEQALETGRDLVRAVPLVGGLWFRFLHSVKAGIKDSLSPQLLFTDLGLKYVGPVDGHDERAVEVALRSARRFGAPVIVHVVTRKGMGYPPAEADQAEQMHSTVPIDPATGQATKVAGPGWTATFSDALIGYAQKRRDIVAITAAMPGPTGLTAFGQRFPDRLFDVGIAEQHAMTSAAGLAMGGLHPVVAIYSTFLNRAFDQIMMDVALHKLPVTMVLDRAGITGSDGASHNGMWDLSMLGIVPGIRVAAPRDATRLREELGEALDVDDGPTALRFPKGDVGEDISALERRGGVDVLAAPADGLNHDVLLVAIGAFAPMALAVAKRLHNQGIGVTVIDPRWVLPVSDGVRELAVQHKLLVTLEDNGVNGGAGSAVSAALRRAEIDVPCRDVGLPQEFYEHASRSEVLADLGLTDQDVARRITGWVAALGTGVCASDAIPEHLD
property.label: Ki (µM)
Value expressed in µM; do not type the unit.

Enquiry: Give recorded Ki with 1-deoxy-D-xylulose-5-phosphate synthase (Mycobacterium tuberculosis) for the following compound: `CCCCOP(=O)(O)C(C)=O`
Return: 4
